viability, T/C: recorded values
# System: 186277-243-T-J2-PDC complex spheroid growth;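 also: luminescent signal used as a stand-in for viable cell amount; spheroids exposed to compounds for seven days before the viability read; 100% = DMSO vehicle control wells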
# experimentalDetails: Anticancer human tumor 186277-243-T-J2-PDC patient-derived colon adenocarcinoma cell line growth inhibition [AhR]
# runParameters: second compound 0.1 µM; first compound 0.316 µM; active compounds read low
Kindly provide the numeric value in % only, without the unit symbol.

Examples with their reported viability, T/C follow.
molecule: Nc1ccccc1NC(=O)c1ccc(CNC(=O)OCc2cccnc2)cc1 + CC(CO)NC(=O)c1cc(-c2ccc(Cl)cc2)nn(-c2cnn(C)c2)c1=O
viability, T/C (%): 67.4

molecule: O=C(c1cc(Cc2n[nH]c(=O)c3ccccc23)ccc1F)N1CCN(C(=O)C2CC2)CC1 + Cc1ccccc1N=Nc1ccc(NC(=O)c2ccnn2C)c(C)c1
viability, T/C (%): 95.5

Attention now shifts to the item below.
The reported viability, T/C value, 186277-243-T-J2-PDC complex spheroid growth, for COc1cc(C2c3cc4c(cc3C(OC3OC5COC(C)OC5C(O)C3O)C3COC(=O)C23)OCO4)cc(OC)c1O (stereo not drawn) + Cc1cncc(-c2nc(NCCc3c[nH]c4ccccc34)c3ncn(C(C)C)c3n2)c1 reads 113
